Below: a set of entries, each annotated with reported kd ratio pH 7.4/6.0.
# Study System: T1, human FcRn/b2M (human, UniProt P61769 21-119, biotinylated)
# T1 construct: bought recombinant biotinylated protein (ACRO FCM-H82W4 or Immunitrack ITF01); also called hFcRn; hFcRn/hb2M
# T1 sequence (chain, as listed by the source limits assumed, chain 1 of 2): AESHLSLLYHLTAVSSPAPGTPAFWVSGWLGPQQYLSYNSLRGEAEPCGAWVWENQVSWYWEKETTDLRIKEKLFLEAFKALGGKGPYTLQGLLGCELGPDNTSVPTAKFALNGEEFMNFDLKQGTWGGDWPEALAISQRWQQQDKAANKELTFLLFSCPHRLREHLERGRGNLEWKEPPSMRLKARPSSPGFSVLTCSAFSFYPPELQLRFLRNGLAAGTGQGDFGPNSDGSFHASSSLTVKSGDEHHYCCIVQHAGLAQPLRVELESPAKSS
# T1 sequence (P61769 21-119 limits assumed, chain 2 of 2): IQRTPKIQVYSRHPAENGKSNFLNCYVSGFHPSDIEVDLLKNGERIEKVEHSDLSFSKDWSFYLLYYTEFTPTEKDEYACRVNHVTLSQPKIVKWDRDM
# Procedure Summary: SPR off-rate; pH 7.4 vs pH 6.0;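 also: surface plasmon resonance with diluted periplasmic extracts flowed over ligand surfaces, 120 s association and 600–3600 s dissociation at 25 °C, running buffer containing 150 mM NaCl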
Respond numerically, and do not add a unit to the figure.

Binder	kd ratio pH 7.4/6.0
T0263018B11 S52aE (VHH, name in Kabat numbering, FLAG3-His6 tagged) VHH: EVQLVESGGGVVQPGGSLRLSCAASGFTFSSYAMYWVRQAPGKGLEWVSAISEGGGSTDYADSVKGRFTISRDNSKNTLYLQMNSLRPEDTALYYCAADTLYTSLTWYSYWGQGTLVTVSS	41

// lookup kd ratio pH 7.4/6.0 for T0263018B11 S52aY (VHH, name in Kabat numbering, FLAG3-His6 tagged) VHH: EVQLVESGGGVVQPGGSLRLSCAASGFTFSSYAMYWVRQAPGKGLEWVSAISYGGGSTDYADSVKGRFTISRDNSKNTLYLQMNSLRPEDTALYYCAADTLYTSLTWYSYWGQGTLVTVSS
42
